tested on: E. faecium strain C68; experiment: microbe, parasite or virus in culture; format: cell-based, Enterococcus faecium; conditions: strain C68, 18 h
No end group written: not given here.
ASSAY ENDPOINT: MIC EF C68 (µg/mL)
Give just the number in µg/mL; leave the unit off.

The following substances have reported results that may help.
| SUBSTANCE | VALUE OBSERVED |
| --- | --- |
| LRWLWRRRWLWR-NH2 [Peptide 3L] | 16 |
| RRWQWRLLLL-NH2 [Peptide 1L] | 16 |
| RRWLWRRLWLWR-NH2 [Peptide 7L] | 4 |
| RRWLWRRRWLWL-NH2 [Peptide 8L] | 4 |
| RRWLWRLRWLWR-NH2 [Peptide 6L] | 4 |

Which measured MIC EF C68 value corresponds to RRWLWLRRWLWR-NH2 [Peptide 5L] ?
4

// same read-out, input: RLWLWRRRWLWR-NH2 [Peptide 4L]
4

---

test system: E. faecium strain C68; test: microbe, parasite or virus in culture; assay type: cell-based, Enterococcus faecium; details: strain C68, 18 h
No end group written: not given here.
# MIC Media Only per entry
Please respond with the number in µg/mL and leave the unit unwritten.

Some solved entries appear below for comparison.
| SUBSTANCE | UNITS | MIC Media Only |
| --- | --- | --- |
| RRWLWRRLWLWR-NH2 [Peptide 7L] | µg/mL | 4 |
| RRWLWRRRWLWL-NH2 [Peptide 8L] | µg/mL | 4 |
| RRWLWLRRWLWR-NH2 [Peptide 5L] | µg/mL | 4 |
| RLWLWRRRWLWR-NH2 [Peptide 4L] | µg/mL | 4 |
| RRWLWRLRWLWR-NH2 [Peptide 6L] | µg/mL | 4 |
| LRWLWRRRWLWR-NH2 [Peptide 3L] | µg/mL | 16 |

Now turn to the next substance.
// lookup MIC Media Only for RRWQWRLLLL-NH2 [Peptide 1L]
16

---

test system: E. faecium strain C68; assay: microbe, parasite or virus in culture; format: cell-based, Enterococcus faecium; conditions: strain C68, 18 h
No end group written: not given here.
ASSAY ENDPOINT: MIC + NaCl (150 mM) (µg/mL)
Number only, in µg/mL; omit the unit.

| SUBSTANCE | MIC + NaCl (150 mM) [µg/mL] |
| --- | --- |
| RRWLWRRRWLWL-NH2 [Peptide 8L] | 4 |

Param item = RRWLWRRLWLWR-NH2 [Peptide 7L] ; retrieve measured MIC + NaCl (150 mM).
4

// repeat for RRWLWRLRWLWR-NH2 [Peptide 6L] and report
4

Another substance to look at: LRWLWRRRWLWR-NH2 [Peptide 3L]
16

Proceed to RRWQWRLLLL-NH2 [Peptide 1L]
4

Next record, please: RLWLWRRRWLWR-NH2 [Peptide 4L]
8

Same for RRWLWLRRWLWR-NH2 [Peptide 5L]
4

---

assay: HPLC retention time on C18 reverse-phase column; format: physicochemical
No end group written: not given here.
Entries and their rT (HPLC retention time)
Quick note: give the figure in min, leave out the unit.

Below are worked cases with known answers.
| SUBSTANCE | UNITS | rT (HPLC retention time) |
| --- | --- | --- |
| LRWLWRRRWLWR-NH2 [Peptide 3L] | min | 16.145 |
| RRWLWRRRWLWL-NH2 [Peptide 8L] | min | 21.235 |
| RRWLWRRLWLWR-NH2 [Peptide 7L] | min | 16.290 |

Fill blank: measured rT (HPLC retention time) of the substance RRWLWRLRWLWR-NH2 [Peptide 6L] is ____.
18.603

Now give it for RRWQWRLLLL-NH2 [Peptide 1L] too.
18.083

Request: RRWLWRL-NH2 [Peptide 2L]
13.321

Further, for RRWLWLRRWLWR-NH2 [Peptide 5L] ?
17.522

Next record, please: RLWLWRRRWLWR-NH2 [Peptide 4L]
18.377

---

system: E. faecium E007 established biofilms; assay type: cell-based, Enterococcus faecium; settings: strain E007, 24 h established biofilms, XTT
No end group written: not given here.
ASSAY ENDPOINT: concentration killing 50% of live bacteria cells in established biofilms (µg/mL)
Enter your answer as a number in µg/mL; do not include the unit.

| SUBSTANCE | VALUE OBSERVED |
| --- | --- |
| RRWLWLRRWLWR-NH2 [Peptide 5L] | 8 |

Here's the next entry for you.
Reported concentration killing 50% of live bacteria cells in established biofilms, substance RRWLWRLRWLWR-NH2 [Peptide 6L] : ____
8

---

System: E. faecium strain C68
Assay: microbe, parasite or virus in culture
Assay type: cell-based, Enterococcus faecium
Conditions: strain C68, 18 h
Method: To determine the MICs of peptides, we used the broth microdilution method described by the Clinical and Laboratory Standards Institute. We made serial dilutions of 10× concentration (10 µL) for each peptide in duplicates in 96-well plates (Cat No. 3595, Corning, New York, NY, USA). […] We measured the OD600 absorbance readings using the Spectra Max i3x spectrophotometer (Molecular Devices, San Jose, CA, USA) and determined the MIC as the peptide concentration that inhibits the growth of bacteria. […]
No end group written: not given here.
ASSAY ENDPOINT: MIC + ZnSO4 (8 µM) (µg/mL)
Answer format: numeric, µg/mL implied, no suffix.

| SUBSTANCE | TARGET DESC | UNITS | MIC + ZnSO4 (8 µM) |
| --- | --- | --- | --- |
| RRWLWRLRWLWR-NH2 [Peptide 6L] | E. faecium strain C68 | µg/mL | 4 |
| RRWLWLRRWLWR-NH2 [Peptide 5L] | E. faecium strain C68 | µg/mL | 4 |

What value of MIC + ZnSO4 (8 µM) has been recorded for this entry: RRWLWRRRWLWL-NH2 [Peptide 8L]
2

Lookup RRWQWRLLLL-NH2 [Peptide 1L]
4

Same again, this time with LRWLWRRRWLWR-NH2 [Peptide 3L]
4

Follow-up item: RRWLWRRLWLWR-NH2 [Peptide 7L]
2

RLWLWRRRWLWR-NH2 [Peptide 4L] , same question.
4
